Source: the supplement of paper PMC7877785

assay: self-splicing fitness, log relative to wild type (ln ratio); higher = more splicing; Tetrahymena group I intron in knt gene, E. coli kanamycin selection, DiMSum; sequences stand for … in CUCUCU…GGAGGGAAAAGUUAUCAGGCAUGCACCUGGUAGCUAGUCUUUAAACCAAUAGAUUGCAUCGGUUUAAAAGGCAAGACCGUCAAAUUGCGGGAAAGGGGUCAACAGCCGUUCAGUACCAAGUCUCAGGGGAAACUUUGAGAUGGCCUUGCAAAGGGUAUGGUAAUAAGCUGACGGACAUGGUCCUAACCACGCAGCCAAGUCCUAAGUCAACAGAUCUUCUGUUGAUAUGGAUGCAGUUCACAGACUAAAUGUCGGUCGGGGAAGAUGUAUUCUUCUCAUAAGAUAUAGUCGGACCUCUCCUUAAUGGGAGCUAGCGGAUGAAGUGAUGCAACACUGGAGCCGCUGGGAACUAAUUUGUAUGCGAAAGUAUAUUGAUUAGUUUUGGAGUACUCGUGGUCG; conditions: 30 °C;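 also: selection with 25 µg/mL kanamycin versus none on LB agar overnight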
Overview of recorded self-splicing fitness (ln) for various sequences

Recorded self-splicing fitness (ln) (sequence GUUAAGCAAUAUUACGGAGC ): -3.58

Recorded self-splicing fitness (ln) (sequence ACGUAGCAAUAUUACGUGGC ): -2.94
